- Experimental system: recombinant mouse Acot13 (Mus musculus)
- Sequence (Q9CQR4 1-140): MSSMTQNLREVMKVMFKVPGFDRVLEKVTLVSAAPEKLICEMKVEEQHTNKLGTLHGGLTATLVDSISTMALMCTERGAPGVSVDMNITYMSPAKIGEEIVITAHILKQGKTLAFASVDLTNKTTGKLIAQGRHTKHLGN
- Measurement description: thioesterase activity assay
Readout label: IC50

Notebook: pull reported IC50 for recombinant mouse Acot13 (Mus musculus), entry `CC(C)(COP(=O)(O)OP(=O)(O)OC[C@H]1O[C@@H](n2cnc3c(N)ncnc32)[C@H](O)[C@@H]1OP(=O)(O)O)[C@@H](O)C(=O)NCCC(=O)NCCS`
~35 µM
